Experiment: Half-life in rat upon oral dose of 10 mg/kg
Format: ADME, organism-based
Parameters: dose 10 mg/kg, route oral
Conditions: in vivo
Each entry below carries its recorded half-life.
ENDPOINT LABEL: half-life

> print(dat)
                                smiles.data  readout.value
1  N[C@]1(C(=O)O)[C@H]2[C@@H](C[C@H]1OC(c1ccccc1)c1ccccc1)[C@]2(F)C(=O)O          2.2 h
2  N[C@]1(C(=O)O)[C@H]2[C@@H](C[C@H]1OCc1ccc(Cl)cc1)[C@]2(F)C(=O)O         3.75 h
3  N[C@]1(C(=O)O)[C@H]2[C@@H](C[C@H]1OCc1ccc(Cl)c(Cl)c1)[C@]2(F)C(=O)O         2.76 h
4  N[C@]1(C(=O)O)[C@H]2[C@@H](C[C@H]1OCc1ccc(F)c(F)c1)[C@]2(F)C(=O)O         1.78 h
5  N[C@]1(C(=O)O)[C@H]2[C@@H](C[C@H]1OCc1ccc3ccccc3c1)[C@]2(F)C(=O)O         2.74 h

###

Each entry below carries its recorded IC50.
Target: Metabotropic glutamate receptor 1 (Rattus norvegicus, UniProt P23385)
Sequence (P23385 whole entry): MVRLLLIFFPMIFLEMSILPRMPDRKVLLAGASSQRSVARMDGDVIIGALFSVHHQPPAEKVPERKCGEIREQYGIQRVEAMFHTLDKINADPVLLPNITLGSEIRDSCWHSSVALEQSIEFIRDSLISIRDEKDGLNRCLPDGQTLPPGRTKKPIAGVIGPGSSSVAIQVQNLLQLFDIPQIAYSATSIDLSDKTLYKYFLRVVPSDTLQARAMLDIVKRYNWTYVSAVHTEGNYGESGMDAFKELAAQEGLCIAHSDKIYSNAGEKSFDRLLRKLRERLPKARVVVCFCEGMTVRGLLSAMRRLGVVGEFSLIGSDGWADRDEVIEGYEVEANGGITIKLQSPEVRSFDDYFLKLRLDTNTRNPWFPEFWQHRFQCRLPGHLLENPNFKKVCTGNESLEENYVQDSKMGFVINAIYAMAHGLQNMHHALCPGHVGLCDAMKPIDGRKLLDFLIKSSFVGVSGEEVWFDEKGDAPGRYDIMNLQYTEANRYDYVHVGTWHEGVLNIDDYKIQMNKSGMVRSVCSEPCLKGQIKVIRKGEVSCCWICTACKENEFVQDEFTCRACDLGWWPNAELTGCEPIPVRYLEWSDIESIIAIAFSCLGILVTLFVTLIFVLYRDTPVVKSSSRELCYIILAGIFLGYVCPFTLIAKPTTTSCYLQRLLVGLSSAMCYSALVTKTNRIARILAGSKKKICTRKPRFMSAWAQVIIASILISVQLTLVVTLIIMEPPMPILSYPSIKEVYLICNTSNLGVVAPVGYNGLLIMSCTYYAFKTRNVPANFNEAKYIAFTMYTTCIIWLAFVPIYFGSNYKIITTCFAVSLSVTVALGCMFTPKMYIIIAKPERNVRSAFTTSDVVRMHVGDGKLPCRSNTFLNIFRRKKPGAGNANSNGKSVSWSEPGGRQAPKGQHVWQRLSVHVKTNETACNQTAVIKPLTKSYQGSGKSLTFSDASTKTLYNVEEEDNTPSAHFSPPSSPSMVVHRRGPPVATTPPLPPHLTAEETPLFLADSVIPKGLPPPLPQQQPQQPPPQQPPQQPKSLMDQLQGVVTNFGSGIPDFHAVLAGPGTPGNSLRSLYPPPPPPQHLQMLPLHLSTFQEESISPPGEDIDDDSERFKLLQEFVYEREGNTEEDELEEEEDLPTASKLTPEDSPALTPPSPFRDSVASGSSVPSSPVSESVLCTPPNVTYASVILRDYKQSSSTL
Test: Concentration required to inhibit metabotropic glutamate receptor 1 activity of rat expressed in CHO cells
ENDPOINT LABEL: IC50 (µM)

> print(dat)
                                smiles.data  readout.value
1  N[C@](CC1c2ccccc2Oc2ccccc21)(C(=O)O)[C@H]1C[C@@H]1C(=O)O           8.99
2  N[C@]1(C(=O)O)[C@H]2[C@@H](C[C@H]1OCc1ccc(Cl)c(Cl)c1)[C@]2(F)C(=O)O           93.3

###

Experiment: Peak plasma concentration in rat brain upon oral dose of 10 mg/kg
Assay type: ADME, organism-based
Set-up: dose 10 mg/kg, route oral
ENDPOINT LABEL: Cmax (ng/mL)

> print(dat)
                                smiles.data  readout.value
1  N[C@]1(C(=O)O)[C@H]2[C@@H](C[C@H]1OCc1ccc(Cl)cc1)[C@]2(F)C(=O)O           3.66
2  N[C@]1(C(=O)O)[C@H]2[C@@H](C[C@H]1OCc1ccc(F)c(F)c1)[C@]2(F)C(=O)O           3.11
3  N[C@]1(C(=O)O)[C@H]2[C@@H](C[C@H]1OC(c1ccccc1)c1ccccc1)[C@]2(F)C(=O)O           2.04
4  N[C@]1(C(=O)O)[C@H]2[C@@H](C[C@H]1OCc1ccc(Cl)c(Cl)c1)[C@]2(F)C(=O)O           13.2
5  N[C@]1(C(=O)O)[C@H]2[C@@H](C[C@H]1OCc1ccc3ccccc3c1)[C@]2(F)C(=O)O           8.72

###

Experiment: Concentration of compound in plasma of rat after 1 hr of oral dose 10 mg/kg
Format: ADME, organism-based
Design: dose 10 mg/kg, route oral
ENDPOINT LABEL: concentration at 1 h (ng/mL)

> print(dat)
                                smiles.data  readout.value
1  N[C@]1(C(=O)O)[C@H]2[C@@H](C[C@H]1OCc1ccc(F)c(F)c1)[C@]2(F)C(=O)O            213
2  N[C@]1(C(=O)O)[C@H]2[C@@H](C[C@H]1OCc1ccc(Cl)c(Cl)c1)[C@]2(F)C(=O)O            364
3  N[C@]1(C(=O)O)[C@H]2[C@@H](C[C@H]1OCc1ccc(Cl)cc1)[C@]2(F)C(=O)O            176
4  N[C@]1(C(=O)O)[C@H]2[C@@H](C[C@H]1OCc1ccc3ccccc3c1)[C@]2(F)C(=O)O            121
5  N[C@]1(C(=O)O)[C@H]2[C@@H](C[C@H]1OC(c1ccccc1)c1ccccc1)[C@]2(F)C(=O)O           61.3

###

Each entry below carries its recorded concentration at 24 h.
Assay: Concentration of compound in brain of rat after 24 hr of oral dose 10 mg/kg
Type: ADME, organism-based
Parameters: dose 10 mg/kg, route oral
ENDPOINT LABEL: concentration at 24 h (ng/mL)

> print(dat)
                                smiles.data  units.symbol  readout.value
1  N[C@]1(C(=O)O)[C@H]2[C@@H](C[C@H]1OCc1ccc(Cl)c(Cl)c1)[C@]2(F)C(=O)O         ng/mL           4.22
2  N[C@]1(C(=O)O)[C@H]2[C@@H](C[C@H]1OCc1ccc3ccccc3c1)[C@]2(F)C(=O)O         ng/mL           0.25
3  N[C@]1(C(=O)O)[C@H]2[C@@H](C[C@H]1OC(c1ccccc1)c1ccccc1)[C@]2(F)C(=O)O         ng/mL           0.51
4  N[C@]1(C(=O)O)[C@H]2[C@@H](C[C@H]1OCc1ccc(F)c(F)c1)[C@]2(F)C(=O)O         ng/mL           1.39

###

Target: Metabotropic glutamate receptor 2 (Rattus norvegicus)
Sequence (P31421 whole entry): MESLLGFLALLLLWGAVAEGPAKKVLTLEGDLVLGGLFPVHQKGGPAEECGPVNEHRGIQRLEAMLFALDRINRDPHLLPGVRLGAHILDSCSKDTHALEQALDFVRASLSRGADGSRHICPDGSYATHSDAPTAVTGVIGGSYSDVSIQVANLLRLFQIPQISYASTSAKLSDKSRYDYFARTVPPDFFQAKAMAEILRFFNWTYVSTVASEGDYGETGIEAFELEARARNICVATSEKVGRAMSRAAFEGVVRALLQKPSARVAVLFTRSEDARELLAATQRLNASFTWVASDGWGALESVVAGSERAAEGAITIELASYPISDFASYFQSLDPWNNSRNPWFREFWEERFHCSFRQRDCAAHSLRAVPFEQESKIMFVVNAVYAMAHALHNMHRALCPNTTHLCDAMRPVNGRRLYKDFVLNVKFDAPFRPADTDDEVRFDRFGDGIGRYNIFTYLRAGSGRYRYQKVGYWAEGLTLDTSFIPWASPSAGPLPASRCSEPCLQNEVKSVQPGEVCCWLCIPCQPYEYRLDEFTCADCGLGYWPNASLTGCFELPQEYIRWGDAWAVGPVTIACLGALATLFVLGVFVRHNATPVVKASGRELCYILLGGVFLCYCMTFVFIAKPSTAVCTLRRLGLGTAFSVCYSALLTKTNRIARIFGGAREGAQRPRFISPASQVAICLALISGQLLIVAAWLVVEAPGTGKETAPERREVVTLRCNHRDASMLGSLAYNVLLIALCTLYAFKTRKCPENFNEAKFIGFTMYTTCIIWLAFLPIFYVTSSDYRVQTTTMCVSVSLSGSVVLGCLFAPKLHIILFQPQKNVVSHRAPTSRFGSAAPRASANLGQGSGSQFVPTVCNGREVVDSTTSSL
pKi: −log10 of the molar value.
ENDPOINT LABEL: pKi

> print(dat)
                                smiles.data  readout.value
1  N[C@@]1(C(=O)O)[C@@H](OCc2ccc(Cl)c(Cl)c2)C[C@@H]2[C@H]1[C@@]2(F)C(=O)O           7.77
2  N[C@]1(C(=O)O)[C@H]2[C@@H](C[C@H]1OCc1ccccc1)[C@]2(F)C(=O)O           8.15
3  COc1cccc(CO[C@@H]2C[C@@H]3[C@H]([C@]2(N)C(=O)O)[C@@]3(F)C(=O)O)c1           8.23
4  CC[C@@H](O[C@@H]1C[C@@H]2[C@H]([C@]1(N)C(=O)O)[C@@]2(F)C(=O)O)c1ccc(Cl)c(Cl)c1           8.79
5  N[C@]1(C(=O)O)[C@H]2[C@@H](C[C@H]1OCc1ccc(Cl)c(Cl)c1)[C@]2(F)C(=O)O           8.62
6  N[C@]1(C(=O)O)[C@H]2[C@@H](C[C@H]1OCc1cccc(C(F)(F)F)c1)[C@]2(F)C(=O)O           8.24

###

Experiment: Peak plasma concentration in rats upon oral dose of 3 mg/kg
Type: ADME, organism-based
Set-up: dose 3 mg/kg, route oral
Conditions: rat
Each entry below carries its recorded Cmax.
ENDPOINT LABEL: Cmax (ng/mL)

> print(dat)
                                smiles.data  endpoint.label  units.symbol  readout.value
1  N[C@]1(C(=O)O)[C@H]2[C@@H](C[C@H]1OC(c1ccccc1)c1ccccc1)[C@]2(F)C(=O)O            Cmax         ng/mL             25
2  N[C@]1(C(=O)O)[C@H]2[C@@H](C[C@H]1OCc1ccc(Cl)cc1)[C@]2(F)C(=O)O            Cmax         ng/mL           76.6
3  N[C@]1(C(=O)O)[C@H]2[C@@H](C[C@H]1OCc1ccc(F)c(F)c1)[C@]2(F)C(=O)O            Cmax         ng/mL           82.3
